# Target: human TLR8 (Homo sapiens)
# Construct: expressed in transfected cells; host or cells: HEK293 cells, transient transfection with TLR8 plasmid and NFκB-luc plasmid
# Test name: TLR8 cellular reporter assay (HEK293, NFκB-luc)
# Format: cell-based
# Condition description: HEK293 cells transfected with CMV-TLR8 and NFκB-luc, 6 hours incubation; lowest effective concentration
Attribute measured: TLR8 LEC

Measured TLR8 LEC, "CCC[C@@H](CCO)Nc1nc(N)nc2ccn(Cc3ccccc3F)c12" : 22.02 µM

Entry "CCCCNc1nc(N)nc2ccn(Cc3ccccc3OC(F)(F)F)c12" , TLR8 LEC reported as >25 µM

The molecule identified as "CCC[C@@H](CO)Nc1nc(N)nc2ccn(Cc3ccccn3)c12" registered its TLR8 LEC at 9.2 µM

Just so you know, measured TLR8 LEC for "CCC[C@@H](CO)Nc1nc(N)nc2ccn(Cc3cccnn3)c12" came out at >25 µM

Noted for "COCCNc1nc(N)nc2ccn(Cc3ccc(C(F)(F)F)cn3)c12" : its TLR8 LEC reads >22.7 µM

For record CCCC(C)Nc1nc(N)nc2ccn(Cc3ccccc3F)c12 (centres unmarked) the listed TLR8 LEC is >25 µM

TLR8 LEC reported for this molecule "CCCCNc1nc(N)nc2ccn(Cc3ccccc3F)c12" : >25 µM

Documented TLR8 LEC of "CC[C@H](C)[C@@H](CO)Nc1nc(N)nc2ccn(Cc3ccccc3)c12" : >25 µM

GET /value?item= "CCC[C@@H](CO)Nc1nc(N)nc2ccn(Cc3ccccc3)c12" &field=TLR8 LEC returns 12.5 µM

The reported TLR8 LEC of the molecule "COc1ccccc1Cn1ccc2nc(N)nc(NCc3cc(C)on3)c21" was >25 µM

Value of measured TLR8 LEC for the entry "Cc1cc(CNc2nc(N)nc3ccn(Cc4ccccn4)c23)no1" : >25 µM

Entry "Cc1cc(CNc2nc(N)nc3ccn(Cc4cccc(C(N)=O)n4)c23)no1" ; TLR8 LEC = >25 µM

Entry "CCCC[C@@H](CCO)Nc1nc(N)nc2ccn(Cc3cscn3)c12" — recorded TLR8 LEC = 2.46 µM

Item: "CCCCNc1nc(N)nc2ccn(Cc3cccc(F)c3)c12" | TLR8 LEC: >25 µM

# TLR8 LEC (molecule: "Cc1cc(CNc2nc(N)nc3ccn(Cc4cccc(F)n4)c23)no1" ) is >25 µM

The molecule listed as "CCCC[C@@H](CCO)Nc1nc(N)nc2ccn(CC(C)C)c12" has a reported TLR8 LEC of 1.1 µM

Entry "Cc1cc(CNc2nc(N)nc3ccn(Cc4ncccc4Cl)c23)no1" , TLR8 LEC reported as >25 µM

====

# Target: human TLR7 (Homo sapiens)
# Construct: expressed in transfected cells; host or cells: HEK293 cells, transient transfection with CMV-TLR7 plasmid and NFκB-luc plasmid
# Sequence (Q9NYK1 27-1049): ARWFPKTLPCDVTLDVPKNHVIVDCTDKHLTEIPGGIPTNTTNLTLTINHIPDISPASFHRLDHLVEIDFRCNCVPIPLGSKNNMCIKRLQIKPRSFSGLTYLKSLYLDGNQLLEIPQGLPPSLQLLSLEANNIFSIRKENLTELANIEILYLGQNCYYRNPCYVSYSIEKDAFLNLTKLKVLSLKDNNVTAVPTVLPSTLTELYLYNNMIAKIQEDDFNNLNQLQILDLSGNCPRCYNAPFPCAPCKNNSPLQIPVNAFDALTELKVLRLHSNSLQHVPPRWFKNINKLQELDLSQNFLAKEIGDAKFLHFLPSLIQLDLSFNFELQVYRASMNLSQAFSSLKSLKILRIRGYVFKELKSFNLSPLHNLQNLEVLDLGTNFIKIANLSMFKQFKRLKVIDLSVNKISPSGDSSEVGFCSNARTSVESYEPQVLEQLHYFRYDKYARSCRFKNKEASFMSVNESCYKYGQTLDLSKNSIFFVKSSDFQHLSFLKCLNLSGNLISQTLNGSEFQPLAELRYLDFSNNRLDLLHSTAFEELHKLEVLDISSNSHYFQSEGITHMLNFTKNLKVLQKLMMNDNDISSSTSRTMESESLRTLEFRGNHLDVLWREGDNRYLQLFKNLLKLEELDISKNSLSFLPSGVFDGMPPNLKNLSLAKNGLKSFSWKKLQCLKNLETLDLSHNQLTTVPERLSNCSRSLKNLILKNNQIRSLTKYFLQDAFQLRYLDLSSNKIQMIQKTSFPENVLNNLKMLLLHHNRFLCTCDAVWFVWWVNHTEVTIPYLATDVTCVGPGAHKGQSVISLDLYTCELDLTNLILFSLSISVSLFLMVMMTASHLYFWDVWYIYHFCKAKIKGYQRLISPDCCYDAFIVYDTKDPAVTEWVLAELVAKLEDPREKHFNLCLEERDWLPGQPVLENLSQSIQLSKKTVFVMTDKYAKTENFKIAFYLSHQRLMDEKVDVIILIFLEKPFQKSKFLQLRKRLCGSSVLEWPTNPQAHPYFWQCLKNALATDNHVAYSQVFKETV
# Test name: TLR7 cellular reporter assay (HEK293, NFκB-luc)
# Assay type: cell-based
# Condition description: HEK293 cells transfected with CMV-TLR7 and NFκB-luc, 6 hours incubation; lowest effective concentration
Attribute measured: TLR7 LEC (µM)
Quick reminder: number only, in µM, skip the unit.

Documented TLR7 LEC of CC1CC1CNc1nc(N)nc2ccn(Cc3ccccc3)c12 (stereo not drawn) : 0.83

Field TLR7 LEC (entry "CCCCNc1nc(N)nc2ccn(C[C@H]3CCCO3)c12" ) reads 0.16

Quick note, TLR7 LEC for "CCCCNc1nc(N)nc2ccn(Cc3cccc(F)c3)c12" landed at 0.30

====

# Target: human TLR8 (Homo sapiens, UniProt Q9NR97)
# Construct: expressed in transfected cells; host or cells: HEK293 cells, transient transfection with TLR8 plasmid and NFκB-luc plasmid
# Test name: TLR8 cellular reporter assay (HEK293, NFκB-luc)
# Assay type: cell-based
# Condition description: HEK293 cells transfected with CMV-TLR8 and NFκB-luc, 6 hours incubation; lowest effective concentration
Attribute measured: TLR8 LEC

The recorded TLR8 LEC for entry "Cc1nnc(CNc2nc(N)nc3ccn(Cc4ccccn4)c23)o1" equals >25 µM

Summary for this molecule, "CC(C)CNc1nc(N)nc2ccn(Cc3ccccc3)c12" : TLR8 LEC is >25 µM

"Nc1nc(NCc2ccccn2)c2c(ccn2Cc2ccccc2)n1" has a reported TLR8 LEC of >25 µM

"COCCNc1nc(N)nc2ccn(Cc3ccccc3)c12" yielded TLR8 LEC of >25 µM

So for COCCn1ccc2nc(N)nc(NC(C)COC)c21 (centres unmarked) , the logged TLR8 LEC turned out to be >25 µM

Please fill in: TLR8 LEC reported for "CC(C)(O)CCNc1nc(N)nc2ccn(Cc3ccccn3)c12" = >25 µM

The reported TLR8 LEC of the molecule "Nc1nc(NCCCO)c2c(ccn2Cc2ccccc2)n1" was >25 µM

Item: "COc1ccc(Cn2ccc3nc(N)nc(NCc4cc(C)on4)c32)nc1" | TLR8 LEC: >25 µM

Lab note: "COCCNc1nc(N)nc2ccn(Cc3cccc(OC)c3)c12" gave TLR8 LEC of >25 µM

In plain terms, "COc1cccc(Cn2ccc3nc(N)nc(NCc4cc(C)on4)c32)n1" has a documented TLR8 LEC of 24.6 µM

// field: TLR8 LEC; key: "CCCCNc1nc(N)nc2ccn(C[C@H]3CCCO3)c12" ; value = 3.93 µM

For this molecule ( "CC(C)c1cc(CNc2nc(N)nc3ccn(Cc4cscn4)c23)no1" ), measured TLR8 LEC is >25 µM

Recorded TLR8 LEC (molecule "CCCCNc1nc(N)nc2ccn(Cc3cc(C)on3)c12" ): 1.3 µM

Kindly note the recorded TLR8 LEC for "CCCCNc1nc(N)nc2ccn(Cc3cccc(CN4CCCC4)c3)c12" , which is >25 µM

====

# Target: human TLR8 (Homo sapiens, UniProt Q9NR97)
# Construct: expressed in transfected cells; host or cells: HEK293 cells, transient transfection with TLR8 plasmid and NFκB-luc plasmid
# Sequence (Q9NR97 27-1041): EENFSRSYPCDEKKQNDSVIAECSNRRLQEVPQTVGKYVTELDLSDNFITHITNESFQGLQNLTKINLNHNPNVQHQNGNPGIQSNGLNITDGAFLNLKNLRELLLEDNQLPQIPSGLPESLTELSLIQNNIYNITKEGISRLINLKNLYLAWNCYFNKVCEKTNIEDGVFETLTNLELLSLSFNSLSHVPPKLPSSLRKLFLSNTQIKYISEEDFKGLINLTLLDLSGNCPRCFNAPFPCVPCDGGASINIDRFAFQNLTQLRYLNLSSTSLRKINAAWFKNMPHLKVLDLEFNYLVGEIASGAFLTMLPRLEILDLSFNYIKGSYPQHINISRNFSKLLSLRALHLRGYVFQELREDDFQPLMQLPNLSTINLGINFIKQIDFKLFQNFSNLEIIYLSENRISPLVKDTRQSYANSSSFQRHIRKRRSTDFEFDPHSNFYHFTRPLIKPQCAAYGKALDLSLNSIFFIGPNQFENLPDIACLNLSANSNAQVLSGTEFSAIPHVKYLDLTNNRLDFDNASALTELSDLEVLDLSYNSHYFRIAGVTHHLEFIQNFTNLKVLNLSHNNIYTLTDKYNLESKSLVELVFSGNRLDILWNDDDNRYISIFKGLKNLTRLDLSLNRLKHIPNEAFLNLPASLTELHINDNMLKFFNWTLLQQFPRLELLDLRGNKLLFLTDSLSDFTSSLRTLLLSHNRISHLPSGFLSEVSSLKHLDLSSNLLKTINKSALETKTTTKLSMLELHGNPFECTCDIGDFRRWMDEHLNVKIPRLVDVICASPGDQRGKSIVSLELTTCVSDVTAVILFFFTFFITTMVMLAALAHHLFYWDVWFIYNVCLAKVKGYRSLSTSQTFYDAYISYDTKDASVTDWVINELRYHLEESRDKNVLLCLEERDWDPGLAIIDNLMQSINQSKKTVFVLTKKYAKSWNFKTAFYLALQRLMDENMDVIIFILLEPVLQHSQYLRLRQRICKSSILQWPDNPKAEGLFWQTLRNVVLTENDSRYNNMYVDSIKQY
# Test name: TLR8 cellular reporter assay (HEK293, NFκB-luc)
# Format: cell-based
# Condition description: HEK293 cells transfected with CMV-TLR8 and NFκB-luc, 6 hours incubation; lowest effective concentration
# Procedure: The ability of compounds to activate human TLR7 and/or TLR8 was assessed in a cellular reporter assay using HEK293 cells transiently transfected with a TLR7 or TLR8 expression vector and NFκB-luc reporter construct. Briefly, HEK293 cells were grown in culture medium (DMEM supplemented with 10% FCS and 2 mM Glutamine). […] Thirty microliters of cells were then dispensed into each well in 384-well plates, where 10 μL of compound in 4% DMSO was already present. […]
Task for the reader: assign each of the following compounds its reported TLR8 LEC.

The recorded TLR8 LEC for entry "CCC[C@@H](CCO)Nc1nc(N)nc2ccn(Cc3ccccc3OC)c12" equals 0.689 µM

So for "COCCNc1nc(N)nc2ccn(Cc3cccc4c3OCCO4)c12" , the logged TLR8 LEC turned out to be 15.93 µM

// field: TLR8 LEC; key: "CCCCNc1nc(N)nc2ccn(Cc3cc(F)ccc3Br)c12" ; value = >25 µM

Entry "CCCCNc1nc(N)nc2ccn(Cc3ccccc3Cl)c12" ; TLR8 LEC = >25 µM

Per the records, this compound ( "CCCCNc1nc(N)nc2ccn(Cc3ccccc3Br)c12" ) has TLR8 LEC equal to >25 µM

Briefly, TLR8 LEC measured for "CCCCNc1nc(N)nc2ccn(Cc3ccc(OC)cc3)c12" : >25 µM

Recorded TLR8 LEC (compound "CC(C)CCNc1nc(N)nc2ccn(Cc3ccccc3)c12" ): >25 µM

Recorded result, "COCCNc1nc(N)nc2ccn(Cc3ncccc3OC)c12" , TLR8 LEC: 7.93 µM

GET /value?item= C[C@@H](Nc1nc(N)nc2ccn(Cc3ccccn3)c12)c1ccccn1 (single isomer, unassigned) &field=TLR8 LEC returns >25 µM

Data point: "Cc1cc(CNc2nc(N)nc3ccn(Cc4cccc(Cl)n4)c23)no1" ; TLR8 LEC = >25 µM

Query "CCCCNc1nc(N)nc2ccn(Cc3cccc4c3OCCO4)c12" yields TLR8 LEC of 0.75 µM

Sure, the documented TLR8 LEC for "COCCCNc1nc(N)nc2ccn(Cc3ccccn3)c12" is >25 µM

Input "COc1cc(OC)nc(Cn2ccc3nc(N)nc(NCc4ncc(C)o4)c32)n1" . Output TLR8 LEC: >25 µM

response.value for "COc1c(C)cnc(Cn2ccc3nc(N)nc(NCc4cc(C)on4)c32)c1C" (field: TLR8 LEC) = >25 µM

The recorded TLR8 LEC for "COc1cnccc1Cn1ccc2nc(N)nc(NCc3cc(C)on3)c21" is >25 µM

Please fill in: TLR8 LEC reported for "Cc1cc(CNc2nc(N)nc3ccn(Cc4ccc(F)cn4)c23)no1" = >25 µM

TLR8 LEC recorded for this compound, "COCc1nc(CNc2nc(N)nc3ccn(Cc4ccccn4)c23)no1" , is >25 µM

Lab note: measured TLR8 LEC of "CCC[C@@H](CCO)Nc1nc(N)nc2ccn(CC3CCCCC3)c12" was >25 µM

GET /value?item= "CCCCNc1nc(N)nc2ccn(CCOC)c12" &field=TLR8 LEC returns 13.5 µM

The reported value for "CCCCNc1nc(N)nc2ccn(Cc3cccc4c3OCC4)c12" in terms of TLR8 LEC is >25 µM

Entry "CCCC[C@@H](CCO)Nc1nc(N)nc2ccn(CC3CCC3)c12" — recorded TLR8 LEC = 1.14 µM

// recorded TLR8 LEC for CC(Nc1nc(N)nc2ccn(Cc3ccccn3)c12)c1ccccn1 (centres unmarked) : >25 µM

So, "COCCn1ccc2nc(N)nc(NCc3ccc(C)cn3)c21" ? Its TLR8 LEC was >25 µM
